Listed here are compounds together with their documented CC50.
# TEST DESCRIPTION: Toxicity against CEM cells
# Format: cell-based
# MEASUREMENT PARAMETERS: human, CEM (CCRF-CEM) cells; read-out: TC50 (the source's name)
Kindly answer with a numeric value in µM, unit omitted.

Take a look at these entries with their results.
CC(=O)N(C)Cc1cccc2c1nc(-c1c(F)cccc1F)n2Cc1c(F)cccc1F: 20.6
Nc1cccc2c1nc(-c1c(F)cccc1F)n2Cc1c(F)cccc1F: 26.3
N=C(NO)c1cccc2c1nc(-c1c(F)cccc1F)n2Cc1c(F)cccc1F: 23.1
CC(=O)NCc1cccc2c1nc(-c1c(F)cccc1F)n2Cc1c(F)cccc1F: 20.8
CN(C)C(=O)c1cccc2c1nc(-c1c(F)cccc1F)n2Cc1c(F)cccc1F: 80.1
Fc1cccc(F)c1Cn1c(-c2c(F)cccc2F)nc2c(Br)cccc21: 24.5

Answer with the recorded CC50 of COc1cccc2c1nc(-c1c(F)cccc1F)n2Cc1c(F)cccc1F only. 44.3

Answer with the recorded CC50 of CCc1cccc2c1nc(-c1c(F)cccc1F)n2Cc1c(F)cccc1F only. 26.1

Answer with the recorded CC50 of CC(C)c1cccc2c1nc(-c1c(F)cccc1F)n2Cc1c(F)cccc1F only. 27
